# Tested on: K562 CRISPRi cells
# Protocol notes: Perturb-seq pooled growth measurement (sgRNA counts, growth phenotype γ, relative activity)
# Type: cell-based, human
# Setup conditions: sequencing read counts; T0 = day two after transduction
# From the text: Finally, we sought to use intermediate-activity sgRNAs to explore relationships between expression levels of various genes and the resulting cellular phenotypes. […] In addition to the single-cell transcriptomes, we measured bulk growth phenotypes conferred by sgRNAs in these cells. […]
# Perturb-seq pooled growth sgRNA counts, T0 per entry
Lab note: write the figure by itself, no unit.

1) HSPA9_−_137911079.23-P1P2_02: sgRNA targeting HSPA9, GGAGTTGCGCGATGCGGTGG, SEQ ID NO: 133 (listed as DNA, chemistry not fully specified)    4345

// Perturb-seq pooled growth sgRNA counts, T0 value for POLR2H_+_184081251.23-P1P2_00: sgRNA targeting POLR2H, GGGGCCACGAGAGCAGCAGA, SEQ ID NO: 28 (listed as DNA, chemistry not fully specified) : 9498

// Perturb-seq pooled growth sgRNA counts, T0 value for HSPE1_+_198365089.23-P1P2_14: sgRNA targeting HSPE1, GGAGACTCGCAGTCCTGCCC, SEQ ID NO: 68 (listed as DNA, chemistry not fully specified) : 4808

// Perturb-seq pooled growth sgRNA counts, T0 value for RAN_+_131356438.23-P1P2_02: sgRNA targeting RAN, GGCGGCCGCTGCGCTTAGGG, SEQ ID NO: 70 (listed as DNA, chemistry not fully specified) : 11853

// Perturb-seq pooled growth sgRNA counts, T0 value for non-targeting_00802: non-targeting negative control sgRNA, GCACGACGCTCCGGCACGCG, SEQ ID NO: 169 (listed as DNA, chemistry not fully specified) [reference compound] : 7096
